Biological target: T1, neuropilin-1 (NRP1) on HEK293 cells overexpressing NRP1 (UniProt O14786 22-923, limits assumed)
T1 construct: whole, on cells
Test: flow cytometry, HEK293-NRP1 vs HEK293
Experimental Readout: 100 nM FACS (MFI Ratio)

For reference, reported 100 nM FACS (MFI Ratio) for NRP1-95 (VHH) VHH: EVQLVESGGGLVQPGGSLRLSCAASGRTFNRYPMGWFRQAPGKEREWISALAPGGGNRYYADSVKGRFTISADNSKNTAYLQMNSLKPEDTAVYYCAIHTSREIWGQGTLVTVSS stands at 1.5

For reference, reported 100 nM FACS (MFI Ratio) for NRP1-4 (VHH) VHH: EVQLVESGGGLVQPGGSLRLSCAASGNIFINNAMGWFRQAPGKERELVAAITSSSGRRWYADSVKGRFTISADNSKNTAYLQMNSLKPEDTAVYYCAARRIVNVEGAYRDWGQGTLVTVSS stands at 30.9

For reference, reported 100 nM FACS (MFI Ratio) for NRP1-99 (VHH) VHH: EVQLVESGGGLVQPGGSLRLSCAASGRTSNIYAMGWFRQAPGKEREFVAAISRSGGLKSYADSVKGRFTISADNSKNTAYLQMNSLKPEDTAVYYCAADRMYRPVGNQYDWGQGTLVTVSS stands at 0.8

For reference, reported 100 nM FACS (MFI Ratio) for NRP1-59 (VHH) VHH: EVQLVESGGGLVQPGGSLRLSCAASGRTISNAAMGWFRQAPGKERELVASISRFGRTNYADSVKGRFTISADNSKNTAYLQMNSLKPEDTAVYYCAARRIVNVEGAYRDWGQGTLVTVSS stands at 0.4
